- subject of test: Mitogen-activated protein kinase 1 (Homo sapiens, UniProt P28482)
- Sequence (P28482 whole entry): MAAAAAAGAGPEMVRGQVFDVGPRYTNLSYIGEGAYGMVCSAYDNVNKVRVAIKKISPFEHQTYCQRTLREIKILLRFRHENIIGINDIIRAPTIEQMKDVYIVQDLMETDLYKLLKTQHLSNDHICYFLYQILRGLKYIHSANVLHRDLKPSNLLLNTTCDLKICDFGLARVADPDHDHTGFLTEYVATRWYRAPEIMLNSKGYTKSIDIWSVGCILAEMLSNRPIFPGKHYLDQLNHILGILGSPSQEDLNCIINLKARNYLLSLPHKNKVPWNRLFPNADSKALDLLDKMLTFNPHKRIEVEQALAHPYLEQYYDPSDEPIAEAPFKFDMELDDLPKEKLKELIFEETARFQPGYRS
- method notes: Assay 1
measured parameter: pKi
Numbers only, as −log10 of the molar value.

Answered examples (6):
compound structure string	subject of test	measured parameter	recorded number
Cc1cnc(NC2CCCC2)nc1-c1c[nH]c(C(=O)N[C@H](CO)c2cccc(Cl)c2)c1	Mitogen-activated protein kinase 1 (Homo sapiens, UniProt P28482)	pKi	8.70
Cc1cnc(N[C@H]2CCC[C@H]2O)nc1-c1c[nH]c(C(=O)N[C@H](CO)c2cccc(Cl)c2)c1	Mitogen-activated protein kinase 1 (Homo sapiens, UniProt P28482)	pKi	8.15
CC[C@@H](COC(=O)OC(C)C)Nc1ncc(C)c(-c2c[nH]c(C(=O)N[C@H](CO)c3cccc(Cl)c3)c2)n1	Mitogen-activated protein kinase 1 (Homo sapiens, UniProt P28482)	pKi	6.80
Cc1cnc(Nc2cc(Cl)cc(Cl)c2)nc1-c1c[nH]c(C(=O)N[C@H](CO)c2ccccc2)c1	Mitogen-activated protein kinase 1 (Homo sapiens, UniProt P28482)	pKi	8.52
Cc1cnc(NC2CCCC2)nc1-c1c[nH]c(C(=O)N[C@H](CO)c2ccccc2)c1	Mitogen-activated protein kinase 1 (Homo sapiens, UniProt P28482)	pKi	8.70
Cc1cnc(Nc2ccccc2)nc1-c1c[nH]c(C(=O)N[C@H](COC(=O)CN)c2ccccc2)c1	Mitogen-activated protein kinase 1 (Homo sapiens, UniProt P28482)	pKi	7.26

q: Name the recorded pKi of the item "CCn1cc(-c2nc(N[C@@H](C)CO)ncc2C)cc1C(=O)N[C@H](CO)c1cccc(Cl)c1" in your answer.
a: 8.30

* * *

- subject of test: Mitogen-activated protein kinase 1 (Homo sapiens)
- method notes: Assay 1
measured parameter: log10 Ki (log10 of the value in nM)
Please be aware that the numbers have been log10-transformed from Ki in nM.

Here's what some known entries look like.
compound	recorded number
Clc1ccc(-c2n[nH]c3c2CCCC3)cc1 [erk000071]	3.72
Cc1cnc(N)nc1-c1c[nH]c(C(=O)NCc2cccc3ccccc23)c1 [erk000037]	2.78
CCN(CC)c1ccc(Nc2ncc(C)c(-c3c[nH]c(C(=O)N[C@H](CO)c4ccccc4)c3)n2)c(C)c1 [erk000654]	1.72
O=C(c1cc(-c2n[nH]cc2-c2cc(Cl)cc(Cl)c2)c[nH]1)N1CCOCC1 [erk000124]	2.91
Cc1cnc(Nc2cccc([N+](=O)[O-])c2)nc1-c1c[nH]c(C(=O)N[C@H](CO)c2ccccc2)c1 [erk000565]	0.48

Provide reported log10 Ki for each item, in the same order as listed.
1. CCNc1ncc(C)c(-c2c[nH]c(C(=O)N[C@@H](C(C)=O)c3ccccc3)c2)n1 [erk000489]
2. CCNc1ncc(C)c(-c2c[nH]c(C(=O)N[C@H](CO)c3cccc(C(F)(F)F)c3)c2)n1 [erk000491]

a:
[3.28, 1.11]

Could I get log10 Ki for every one of these entries?
1. Cc1cnc(Nc2ccccn2)nc1-c1c[nH]c(C(=O)N[C@H](CO)c2ccccc2)c1 [erk000517]
2. Nc1ncc(-c2cc(Cl)cc(Cl)c2)c(-c2c[nH]c(C(=O)N[C@H](CO)c3ccccc3)c2)n1 [erk000031]
3. O=c1[nH][nH]c2cc(Nc3ncc(Nc4ccccc4)c(Nc4cc(C5CC5)[nH]n4)n3)ccc12 [erk000633]
4. CCOC(=O)NNc1ncc(C)c(-c2c[nH]c(C(=O)N[C@H](CO)c3ccccc3)c2)n1 [erk000498]
5. CCC[C@H](C)Nc1ncc(C)c(-c2c[nH]c(C(=O)N[C@H](CO)c3ccccc3)c2)n1 [erk000546]
6. CCNc1nccc(-c2c[nH]c(C(=O)N[C@H](CO)c3ccccc3)c2)n1 [erk000068]

a:
1: -0.40; 2: 2.36; 3: 1.18; 4: 2.81; 5: 1.26; 6: 2.00

Would you mind listing log10 Ki for each of the following compounds?
1. CCOC(=O)OC[C@H](CC)Nc1ncc(C)c(-c2c[nH]c(C(=O)N[C@H](CO)c3cccc(Cl)c3)c2)n1 [erk000669]
2. Cc1cnc(N)nc1-c1c[nH]c(C(=O)NCc2ccccc2)c1 [erk000103]
3. CC[C@@H](COC(=O)[C@@H](N)C(C)(C)C)Nc1ncc(C)c(-c2c[nH]c(C(=O)N[C@H](COC(=O)[C@@H](N)C(C)(C)C)c3cccc(Cl)c3)c2)n1 [erk000714]
4. CCNc1ncc(C)c(-c2c[nH]c(C(=O)NCc3ccccc3F)c2)n1 [erk000473]
5. CC(=O)NCCNc1ncc(C)c(-c2c[nH]c(C(=O)N[C@H](CO)c3ccccc3)c2)n1 [erk000560]
6. CC[C@@H](COC(=O)[C@H](CC(C)C)NC)Nc1ncc(C)c(-c2c[nH]c(C(=O)N[C@H](COC(=O)[C@H](CC(C)C)NC)c3cccc(Cl)c3)c2)n1 [erk000719]

a:
[1.43, 2.92, 1.48, 2.90, 1.76, 2.72]

* * *

For each entry below, report its Ki value.
- subject of test: Mitogen-activated protein kinase 1 (Homo sapiens, UniProt P28482)
- method notes: Assay 1
One number for each entry, in nM.

Sample answers from the record:
compound structure string	Ki [nM]
Cc1cnc(Nc2ccc(OCc3ccccc3)cc2)nc1-c1c[nH]c(C(=O)N[C@H](CO)c2ccccc2)c1	3
Nc1nccc(-c2c[nH]c(C(=O)N[C@H](CO)c3ccccc3)c2)n1	324
CCOP(=O)(OCC)OC[C@H](CC)Nc1ncc(C)c(-c2c[nH]c(C(=O)N[C@H](CO)c3cccc(Cl)c3)c2)n1	1100

Now consider the entry below.
q: # return Ki for "Cc1ccc(Nc2ncc(C)c(-c3c[nH]c(C(=O)NCc4cccc(C(F)(F)F)c4)c3)n2)cc1C" , test system: Mitogen-activated protein kinase 1 (Homo sapiens, UniProt P28482)
a: 28

* * *

Would you kindly list Ki for each of these compounds?
- subject of test: Mitogen-activated protein kinase 1 (Homo sapiens)
- method notes: Assay 1
Numbers only, in nM.

Worked cases, Ki given:
compound structure string	unit name	Ki
Cc1cnc(NCCc2ccccc2)nc1-c1c[nH]c(C(=O)N[C@H](CO)c2ccccc2)c1	nM	7
Cc1cccc([C@@H](CO)NC(=O)c2cc(-c3nc(NOCC(C)C)ncc3C)c[nH]2)c1	nM	10

Consider the additional compound presented here.
q: Tell me Ki reported for "CC[C@@H](COC(=O)COCCOCCOC)Nc1ncc(C)c(-c2c[nH]c(C(=O)N[C@H](CO)c3cccc(Cl)c3)c2)n1"
a: 13

* * *

- subject of test: Mitogen-activated protein kinase 1 (Homo sapiens, UniProt P28482)
- method notes: Assay 1
measured parameter: Ki (nM)
One number for each entry, in nM.

Below, 2 compounds whose answers are already recorded.
compound structure string	Ki, nM
Cc1cnc(Nc2cccc(C)c2C)nc1-c1c[nH]c(C(=O)N[C@H](CO)c2cccc(F)c2)c1	4
CC[C@@H](COC(=O)C(C)C)Nc1ncc(C)c(-c2c[nH]c(C(=O)N[C@H](CO)c3cccc(Cl)c3)c2)n1	15

Shifting focus to the compound that follows.
q: In one line, give reported Ki of the entry "CC[C@@H](COC(C)=O)Nc1ncc(C)c(-c2c[nH]c(C(=O)N[C@H](CO)c3cccc(Cl)c3)c2)n1" .
a: 6

* * *

I'd be grateful if you could share measured pKi for these entries.
- subject of test: Mitogen-activated protein kinase 1 (Homo sapiens)
- method notes: Assay 1
Give bare numbers, as −log10 of the molar value.

Example compounds with recorded pKi:
compound	pKi
Cc1cnc(NCc2ccccn2)nc1-c1c[nH]c(C(=O)N[C@H](CO)c2ccccc2)c1 [erk000580]	5.95
Cc1cnc(N)nc1-c1c[nH]c(C(=O)NCc2cccc(Cl)c2)c1 [erk000303]	7.09

Here's the next entry for you.
q: Report pKi for Cc1cnc(Nn2cccc2)nc1-c1c[nH]c(C(=O)N[C@H](CO)c2ccccc2)c1 [erk000573]
a: 8.05

* * *

Give Ki for every item shown.
- subject of test: Mitogen-activated protein kinase 1 (Homo sapiens)
- method notes: Assay 1
Answers are plain numbers, in nM.

Study these solved cases before continuing.
compound	measured parameter	recorded number
Cc1cnc(N)nc1-c1c[nH]c(C(=O)N[C@H](CO)c2cccc(Cl)c2)c1 [erk000691]	Ki	15
CCC(CC)Nc1ncc(C)c(-c2c[nH]c(C(=O)N[C@H](CO)c3ccccc3)c2)n1 [erk000547]	Ki	6

q: Quickly give me recorded Ki for Cc1cccc([C@@H](CO)NC(=O)c2cc(-c3nc(NC4CCCCC4)ncc3C)c[nH]2)c1 [erk000642]
a: 12
